RUN DESCRIPTION: Cell Viability - HepG2 (AID 433);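 further: cells exposed to compound for 40 hours; potency for ATP loss meaning cytotoxicity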
MEASUREMENT SETUP: qHTS
Results filed as inconclusive are left out. Active and inactive are the calls of the source. The call rests on the fitted dose curve.
Valid outcomes are listed here; reply with one: True (active), False (inactive)

Solved entries:
CCCCCCCCCCCCCCCCCC(=O)O | False
Nc1ccc(O)c(C(=O)O)c1 | False
c1cnc2c(c1)ccc1cccnc12 | True
COc1cc(/C=C/C(=O)CC(=O)/C=C/c2ccc(O)c(OC)c2)ccc1O | False
CN(C)CCC(c1ccc(Cl)cc1)c1ccccn1 (centres undefined) | False

Q. Check the results log: what was the call for "Nc1ccc(O)c([N+](=O)[O-])c1" ?
A. False

Q. Dear all, I need the recorded test outcome for "NCCO" , thank you.
A. False

Q. Fill in: this test's call for "c1ccc2sc(SSc3nc4ccccc4s3)nc2c1" is ___
A. False

Q. I'd appreciate the recorded outcome for "Oc1ccccc1O" from this test.
A. False

====

TARGET SYSTEM: Beta-2 adrenergic receptor (Homo sapiens) (UniProt P07550)
Sequence (P07550 whole entry, looked up): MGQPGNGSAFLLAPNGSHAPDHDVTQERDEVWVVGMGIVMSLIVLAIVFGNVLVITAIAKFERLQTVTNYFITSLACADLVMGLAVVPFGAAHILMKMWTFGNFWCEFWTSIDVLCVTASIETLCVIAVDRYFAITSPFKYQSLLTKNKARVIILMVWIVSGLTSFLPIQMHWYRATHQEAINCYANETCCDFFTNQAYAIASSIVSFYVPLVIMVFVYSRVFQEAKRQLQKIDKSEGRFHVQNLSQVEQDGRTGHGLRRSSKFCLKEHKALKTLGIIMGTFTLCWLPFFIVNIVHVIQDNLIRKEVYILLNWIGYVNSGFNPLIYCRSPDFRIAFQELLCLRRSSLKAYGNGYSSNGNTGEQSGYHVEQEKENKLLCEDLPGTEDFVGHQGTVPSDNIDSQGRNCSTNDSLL
RUN DESCRIPTION: qHTS validation assay of beta-arrestin-biased ligands of beta2-adrenergic receptor (AID 485366); further: 0% is about no effect
MEASUREMENT SETUP: cell-based beta-arrestin recruitment to ADRB2, qHTS; series mostly up to 46.1 µM
Activity calls are given as the source filed them. The call rests on the fitted dose curve; in most records, active means well fitted curve in the direction sought with a large enough effect; inconclusive means small, poorly fitted or top-dose-only effect, or effect the other way, or another doubt; inactive means no such curve, though single readings can be large or run the other way.
ASSAY READOUT: outcome

Reference set, count: 5
C[C@@H](CN1CCC(Cc2ccccc2)CC1)[C@@H](O)c1ccc(O)cc1 | inactive
O=C(O)CC[C@@H](C(=O)O)N1C(=O)c2ccccc2C1=O | inactive
O=C(O)c1cc([N+](=O)[O-])ccc1NCCCc1ccccc1 | inactive
CCCCCCCCCCCCCCCCCCNC(=O)OCC(COP(=O)([O-])OCC[n+]1ccsc1)OC (stereo unspecified) | inactive
CCc1c(C(=O)NCCc2ccc(N3CCCCC3)cc2)[nH]c2ccc(Cl)cc12 | inactive

Q. Requested read-out outcome, target or system Beta-2 adrenergic receptor (Homo sapiens) (UniProt P07550), entry "CCN1/C(=C/C(C)=O)Sc2ccc(OC)cc21"
A. inactive

====

Give measured Z-AUC for each item. Keep answers brief.
RUN DESCRIPTION: qHTS drug screen for cell cycle checkpoint inhibitors in PARPi-resistant BRCA-mutant ovarian cancer cell lines. (AID 1963452)
MEASUREMENT SETUP: PEO1/OlaR viability, CellTiter-Glo luminescence, 96 h; measured here: PEO4 Z-AUC; stronger effect = lower value
Source text: Women's Malignancies Branch, Center for Cancer Research (CCR), National Cancer Institute (NCI), National Institutes of Health (NIH), Bethesda, MD Poly (ADP-ribose) polymerase inhibitors (PARPis) have changed the treatment paradigm in breast cancer gene (BRCA) - mutant high-grade serous ovarian carcinoma (HGSC). […] 6; Detection; Luminescence, PHERAstar (BMG Labtech) plate reader. […] 6. Luminescence readings were taken using PHERAstar (BMG Labtech). […]
One number for each entry.

Here are 3 compounds together with their reported answers.
COc1cc(SC)ccc1C(=O)N1CCC(Cc2ccccc2)CC1 | 1.59
C[N+]1(C)C2CC(OC(=O)[C@H](CO)c3ccccc3)CC1C1OC12 (stereo not given in full) | 2.01
CN[C@H](CC(C)C)C(=O)N[C@H]1C(=O)N[C@@H](CC(N)=O)C(=O)N[C@H]2C(=O)N[C@H]3C(=O)N[C@H](C(=O)N[C@H](C(=O)O)c4cc(O)cc(O)c4-c4cc3ccc4O)[C@H](O)c3ccc(c(Cl)c3)Oc3cc2cc(c3O[C@@H]2O[C@H](CO)[C@@H](O)[C@H](O)[C@H]2O[C@H]2C[C@](C)(N)[C@H](O)[C@H](C)O2)Oc2ccc(cc2Cl)[C@H]1O | -1.21

Report Z-AUC for each item below.
1. O=C(/C=C/c1ccc(O)cc1)c1ccc(O)cc1O
2. COc1ccc(/C=C/C(=O)Nc2ccccc2C(=O)O)cc1OC

A.
1. 0.213
2. 0.971
